In this section, each of the compounds is paired with its reported relative viability.
- Tested on: NCI-H1734
- test protocol: relative viability (nuclei count vs DMSO), 5 days (fraction); higher = more cells survive
- assay context: first compound 8 µM
Lab note: record just the number, no unit beside it.

Which relative viability reading was recorded for the compound C=C1C(=O)O[C@@H](CCCCCCCC)[C@@H]1C(=O)O [C-75] + CC(=O)Nc1cccc(-n2c(=O)n(C3CC3)c(=O)c3c(Nc4ccc(I)cc4F)n(C)c(=O)c(C)c32)c1 [Trametinib] (partner 0.02 µM) ? 0.691

Which relative viability reading was recorded for the compound C=C1C(=O)O[C@@H](CCCCCCCC)[C@@H]1C(=O)O [C-75] + COc1cc2c(Oc3ccc(NC(=O)C4(C(=O)Nc5ccc(F)cc5)CC4)cc3F)ccnc2cc1OCCCN1CCOCC1 [Foretinib] (partner 0.25 µM) ? 0.748

* * *

- Tested on: NCI-H23
- test protocol: relative viability (nuclei count vs DMSO), 5 days (fraction); higher = more cells survive
- assay context: first compound 0.1 µM
Lab note: cut-off is 0.5. Strictly less in relative viability is Yes. Exactly 0.5 or more is No.

For this molecule, is relative viability lower than 0.5? NC(=O)Nc1cc(-c2cccc(F)c2)sc1C(=O)N[C@H]1CCCNC1 [AZD7762] + CCNC(=O)c1noc(-c2cc(C(C)C)c(O)cc2O)c1-c1ccc(CN2CCOCC2)cc1 [Luminespib] (partner 0.01 µM) Yes

For this molecule, is relative viability lower than 0.5? NC(=O)Nc1cc(-c2cccc(F)c2)sc1C(=O)N[C@H]1CCCNC1 [AZD7762] + COc1cccc2cc(-c3nc([C@H]4CC[C@H](C(=O)O)CC4)n4ncnc(N)c34)[nH]c12 [OSI-027] (partner 0.5 µM) No

For this molecule, is relative viability lower than 0.5? NC(=O)Nc1cc(-c2cccc(F)c2)sc1C(=O)N[C@H]1CCCNC1 [AZD7762] + C[C@]1(O)C[C@@H](c2nc(-c3ccc4ccc(-c5ccccc5)nc4c3)c3c(N)nccn32)C1 [Linsitinib] (partner 1 µM) No

Continuing:
For this molecule, is relative viability lower than 0.5? NC(=O)Nc1cc(-c2cccc(F)c2)sc1C(=O)N[C@H]1CCCNC1 [AZD7762] + Nc1ncn([C@H]2C[C@H](O)[C@@H](CO)O2)c(=O)n1 [Decitabine] (partner 2 µM) Yes

For this molecule, is relative viability lower than 0.5? NC(=O)Nc1cc(-c2cccc(F)c2)sc1C(=O)N[C@H]1CCCNC1 [AZD7762] + Cc1nc(NC(=O)N2CCC[C@H]2C(N)=O)sc1-c1ccnc(C(C)(C)C(F)(F)F)c1 [Alpelisib] (partner 2 µM) No

* * *

In this section, each of the molecules is paired with its reported relative viability.
- Test system: A-427
- test protocol: relative viability (nuclei count vs DMSO), 5 days (fraction); higher = more cells survive
- assay context: first compound 0.005 µM
Lab note: record just the number, no unit beside it.

Please review the following examples before continuing.
Give A-427 relative viability for CC1(C)CCC(c2ccc(Cl)cc2)=C(CN2CCN(c3ccc(C(=O)NS(=O)(=O)c4ccc(N[C@H](CCN5CCOCC5)CSc5ccccc5)c(S(=O)(=O)C(F)(F)F)c4)cc3)CC2)C1 [Navitoclax] + CC(=O)c1c(C)c2cnc(Nc3ccc(N4CCNCC4)cn3)nc2n(C2CCCC2)c1=O [Palbociclib] (partner 0.5 µM) 0.502

Give A-427 relative viability for CC1(C)CCC(c2ccc(Cl)cc2)=C(CN2CCN(c3ccc(C(=O)NS(=O)(=O)c4ccc(N[C@H](CCN5CCOCC5)CSc5ccccc5)c(S(=O)(=O)C(F)(F)F)c4)cc3)CC2)C1 [Navitoclax] + Cc1nc(NC(=O)N2CCC[C@H]2C(N)=O)sc1-c1ccnc(C(C)(C)C(F)(F)F)c1 [Alpelisib] (partner 2 µM) 1.01

Now take the following molecule into account.
Give A-427 relative viability for CC1(C)CCC(c2ccc(Cl)cc2)=C(CN2CCN(c3ccc(C(=O)NS(=O)(=O)c4ccc(N[C@H](CCN5CCOCC5)CSc5ccccc5)c(S(=O)(=O)C(F)(F)F)c4)cc3)CC2)C1 [Navitoclax] + O=C(c1cc(Cc2n[nH]c(=O)c3ccccc23)ccc1F)N1CCN(C(=O)C2CC2)CC1 [Olaparib] (partner 8 µM) 0.71
